biological target: angiotensin converting enzyme (Oryctolagus cuniculus); experiment: Inhibition of isolated angiotensin-converting enzyme of rabbit lung (cleavage of hippuryl-L-histidyl-L-leucine); type: biochemical; parameters: isolated angiotensin converting enzyme from rabbit lungs; from tissue; host or cells: rabbit lung; settings: 5 mM hippuryl-L-histidyl-L-leucine; pH 8.3; 30 minutes at 37° C.; read-out: I50 (50% inhibition of angiotensin-converting enzyme) (converted)
Sequence (P12822 34-1310): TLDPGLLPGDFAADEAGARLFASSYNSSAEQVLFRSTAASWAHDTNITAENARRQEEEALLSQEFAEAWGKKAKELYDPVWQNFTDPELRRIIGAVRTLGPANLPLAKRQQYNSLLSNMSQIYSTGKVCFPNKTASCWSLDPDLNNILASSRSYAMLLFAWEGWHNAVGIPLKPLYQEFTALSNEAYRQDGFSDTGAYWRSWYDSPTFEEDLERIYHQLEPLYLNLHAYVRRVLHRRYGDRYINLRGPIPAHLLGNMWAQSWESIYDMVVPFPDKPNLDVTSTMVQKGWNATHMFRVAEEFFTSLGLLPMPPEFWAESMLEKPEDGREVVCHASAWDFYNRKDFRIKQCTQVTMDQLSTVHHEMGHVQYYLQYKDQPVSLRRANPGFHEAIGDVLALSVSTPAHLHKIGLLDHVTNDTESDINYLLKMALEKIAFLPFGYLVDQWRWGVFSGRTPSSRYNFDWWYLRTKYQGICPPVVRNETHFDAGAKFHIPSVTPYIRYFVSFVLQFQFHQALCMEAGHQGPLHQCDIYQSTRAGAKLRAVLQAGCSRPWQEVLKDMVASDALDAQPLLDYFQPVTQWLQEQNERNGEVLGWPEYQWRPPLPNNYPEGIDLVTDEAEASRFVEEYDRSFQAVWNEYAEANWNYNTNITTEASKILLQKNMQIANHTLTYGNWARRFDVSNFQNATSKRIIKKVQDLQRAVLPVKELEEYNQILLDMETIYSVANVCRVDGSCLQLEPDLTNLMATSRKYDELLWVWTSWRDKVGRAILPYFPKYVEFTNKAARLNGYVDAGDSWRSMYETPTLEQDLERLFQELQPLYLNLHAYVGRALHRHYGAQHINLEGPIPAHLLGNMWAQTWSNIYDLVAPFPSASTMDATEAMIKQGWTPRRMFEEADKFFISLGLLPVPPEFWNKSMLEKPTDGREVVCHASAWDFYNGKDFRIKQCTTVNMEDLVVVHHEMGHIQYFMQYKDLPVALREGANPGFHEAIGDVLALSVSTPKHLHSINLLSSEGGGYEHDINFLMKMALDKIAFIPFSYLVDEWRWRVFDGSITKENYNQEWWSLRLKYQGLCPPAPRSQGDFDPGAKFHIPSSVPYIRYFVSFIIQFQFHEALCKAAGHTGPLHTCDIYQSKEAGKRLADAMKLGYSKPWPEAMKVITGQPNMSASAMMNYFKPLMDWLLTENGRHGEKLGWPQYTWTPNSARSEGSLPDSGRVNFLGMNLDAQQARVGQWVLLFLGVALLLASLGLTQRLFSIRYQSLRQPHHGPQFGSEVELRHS
Measured parameter: IC50 (µM)

compound="CC(S)C(=O)NCC(=O)O (stereo not drawn)" recorded_number=15.9

P: CC(C)C[C@H](NC(=O)CCS)C(=O)O
Q: O=C(O)CNC(=O)CCS
Q: # query: argmin of IC50 over P and Q Write down the label attached to your selection.
Ans: P

* * *

Target: angiotensin converting enzyme (Oryctolagus cuniculus)
Assay: Inhibition of isolated angiotensin-converting enzyme of rabbit lung (cleavage of hippuryl-L-histidyl-L-leucine)
Format: biochemical
Set-up: isolated angiotensin converting enzyme from rabbit lungs; from tissue; host or cells: rabbit lung
Settings: 5 mM hippuryl-L-histidyl-L-leucine; pH 8.3; 30 minutes at 37° C.; read-out: I50 (50% inhibition of angiotensin-converting enzyme) (converted)
Procedure: Although conversion of angiotensin I to angiotensin II by angiotensin-converting enzyme is probably the reaction of most importance in the pathology of hypertension, the activity of the isolated enzyme is more conveniently and accurately assayed by measuring its rate of cleavage of a simpler peptide substrate, hippuryl-L-histidyl-L-leucine. […] The percent inhibition by each concentration of compound is calculated by comparison with the 0% and 100% activity controls. […]
Measured parameter: IC50 (µM)

record_smiles=O=C(CCS)N[C@@H](Cc1ccccc1)C(=O)O recorded_number=3.39
record_smiles=CN(CC(=O)O)C(=O)CCS recorded_number=10.2

1: N=C(N)NCCC[C@H](NC(=O)CCS)C(=O)O
2: C[C@H](NC(=O)CCS)C(=O)O
Q: # query: argmin of IC50 over 1 and 2 Write down the label attached to your selection.
Ans: 1
